// data source = ChEMBL document CHEMBL1157539

System: Plasmodium falciparum
Test: GSK_TCMDC: Inhibition of Plasmodium falciparum 3D7 in whole erythrocytes, using parasite LDH activity as an index of growth.
Assay type: functional, organism-based
Details: Plasmodium falciparum, 3D7
metric-name: XC50 (nM)

compound=O=C(Nc1cccc(-c2cccc(-c3nc4cc(C(F)(F)F)ccc4[nH]3)c2)c1)c1ccc(=O)[nH]n1 observed_result=656
compound="Nc1ccc2[nH]cc(C3CCN(CC4CCC(NC(=O)/C=C/c5ccccc5Cl)CC4)CC3)c2n1 (stereo not drawn)" observed_result=688
compound=O=C(Nc1ccc(F)cc1)NC1CCN(c2ccnc3cc(Cl)ccc23)CC1 observed_result=408
compound=CC(=O)Nc1ccc2[nH]cc(C3CCN(CC4CCN(C(=O)/C=C/c5ccc(Cl)c(Cl)c5)CC4)CC3)c2n1 observed_result=161
compound=Nc1nccc(-c2ccc3c(/C=C/c4ccccc4)cnc(N)c3c2)n1 observed_result=621
compound=Oc1ccc(-c2nc(-c3ccc4oc5ccc(-c6[nH]c(-c7ccc(O)cc7)nc6-c6ccccc6)cc5c4c3)c(-c3ccccc3)[nH]2)cc1 observed_result=1110
compound=COc1ccc(Nc2nc(NCc3ccc(-n4ccnc4)cc3)cc(-c3ccc(OC)cc3)n2)cc1 observed_result=827
compound=Cc1cc(CNC(=O)c2ccc(-c3ccc(-c4nc5cc(C(F)(F)F)ccc5[nH]4)s3)cc2)on1 observed_result=732

----------
System: Plasmodium falciparum
Assay: GSK_TCMDC: Inhibition of Plasmodium falciparum 3D7 in whole erythrocytes, using parasite LDH activity as an index of growth.
Type: functional, organism-based
Conditions: Plasmodium falciparum, 3D7
metric-name: XC50 (nM)

compound=O=C(Nc1ccccc1)N(Cc1cccc(-c2ccc(CNC3CCCC3)cc2)c1)C1CCN(Cc2ccccc2)CC1 subject_of_test="Plasmodium falciparum" unit_label=nM observed_result=394
compound="CCCC1N=C(N)N=C(N)N1c1cccc([N+](=O)[O-])c1 (configuration not stated)" subject_of_test="Plasmodium falciparum" unit_label=nM observed_result=760
compound=Cc1cccc2c1NC(=O)/C2=N/NC(=S)N(C)C subject_of_test="Plasmodium falciparum" unit_label=nM observed_result=755
compound="O=C(Nc1ccc(OC2CCN(Cc3ccc(F)cc3)C2)c(Cl)c1)c1ccccc1 (configuration not stated)" subject_of_test="Plasmodium falciparum" unit_label=nM observed_result=787
compound="CC1CC(NCCCNc2cc(=O)c3ccccc3[nH]2)c2c(Cl)c(Cl)cc(Cl)c21 (configuration not stated)" subject_of_test="Plasmodium falciparum" unit_label=nM observed_result=981
compound=Cc1sc2nc(CSc3ccccc3)nc(N3CCN(CC(=O)N4CCCC4)CC3)c2c1C subject_of_test="Plasmodium falciparum" unit_label=nM observed_result=1260
compound=O=C1c2ccccc2C(=O)N1c1ccc(S(=O)(=O)N2CCOCC2)cc1 subject_of_test="Plasmodium falciparum" unit_label=nM observed_result=1260
compound=CCCCCCCN(Cc1ccc(OC(C)(C)C(=O)OCC)cc1)C(=O)Cc1ccc(F)cc1F subject_of_test="Plasmodium falciparum" unit_label=nM observed_result=1030
compound="CC1(C(=O)Nc2ccc([N+](=O)[O-])cc2O)CC2c3ccccc3C1c1ccccc12 (configuration not stated)" subject_of_test="Plasmodium falciparum" unit_label=nM observed_result=715
compound=Oc1ccc2[nH]c(-c3cccc(F)c3)nc2c1CNCc1ccccc1 subject_of_test="Plasmodium falciparum" unit_label=nM observed_result=916
compound="Cc1ccc(CC(C)NCC(O)c2cccc(C(F)(F)F)c2)cc1F (configuration not stated)" subject_of_test="Plasmodium falciparum" unit_label=nM observed_result=916
compound=O=C(NC1CCN(CC2(c3ccccc3F)CCCC2)CC1)c1cc[nH]n1 subject_of_test="Plasmodium falciparum" unit_label=nM observed_result=997

----------
Tested on: Plasmodium falciparum
Assay: GSK_TCMDC: Inhibition of Plasmodium falciparum 3D7 in whole erythrocytes, using parasite LDH activity as an index of growth.
Assay type: functional, organism-based
Conditions: Plasmodium falciparum, 3D7
Item-by-item account of XC50
metric-name: XC50 (µM)

compound=N#Cc1cc(C(=O)c2cc(Br)ccc2O)cn(C2CCCCC2)c1=O subject_of_test="Plasmodium falciparum" metric_name=XC50 unit_label=µM observed_result=0.91
compound="O=S(=O)(/C=C/c1ccccc1)N(Cc1ccc(-c2ccc(CNCCc3ccccn3)cc2)cc1)CC1CCCCN1 (stereo not given)" subject_of_test="Plasmodium falciparum" metric_name=XC50 unit_label=µM observed_result=0.742
compound=CN(C)CCC1CCN(CCS(=O)(=O)c2cccc(Nc3ncc(-c4cccc(F)c4)cn3)c2)CC1 subject_of_test="Plasmodium falciparum" metric_name=XC50 unit_label=µM observed_result=1.06
compound=O=C(NCCNc1ccnc(Nc2ccc(F)cc2)n1)c1cc2ccccc2s1 subject_of_test="Plasmodium falciparum" metric_name=XC50 unit_label=µM observed_result=0.755
compound="O=C(NC1CCCCC1)C(c1cccs1)N(CCc1ccccc1)C(=O)c1ccco1 (stereo not given)" subject_of_test="Plasmodium falciparum" metric_name=XC50 unit_label=µM observed_result=1.04
compound=Cc1nc2nc(N)nc(N)c2c(C)c1Cc1ccccc1Br subject_of_test="Plasmodium falciparum" metric_name=XC50 unit_label=µM observed_result=0.0602
compound="CC(Oc1ccc(Cl)cc1)C(=O)Nc1cc(C(F)(F)F)ccc1N1CCOCC1 (stereo not given)" subject_of_test="Plasmodium falciparum" metric_name=XC50 unit_label=µM observed_result=0.532
compound=CC1(C)NC(N)=NC(=N)N1OCCCO subject_of_test="Plasmodium falciparum" metric_name=XC50 unit_label=µM observed_result=0.221
compound=CCc1cccc(-n2c(=O)c3cccnc3n2CC(=O)NC2CCCC2)c1 subject_of_test="Plasmodium falciparum" metric_name=XC50 unit_label=µM observed_result=0.932
compound=COc1ccc(CNC(=O)c2cnc3cc(-c4c(C)noc4C)ccc3c2Nc2ccccc2C(C)(C)C)cc1 subject_of_test="Plasmodium falciparum" metric_name=XC50 unit_label=µM observed_result=1.3

----------
Test system: Plasmodium falciparum
Test: GSK_TCMDC: Inhibition of Plasmodium falciparum 3D7 in whole erythrocytes, using parasite LDH activity as an index of growth.
Format: functional, organism-based
Details: Plasmodium falciparum, 3D7
Item-by-item account of XC50
metric-name: XC50

molecule=COc1ccc(-c2c(-c3ccc(OCc4ccccc4)cc3O)n[nH]c2C(F)(F)F)cc1 observed_result="1170 nM"
molecule=COc1ccc2ncc(F)c(CCN3CCC(CNCc4cccc5c4OCO5)CC3)c2n1 observed_result="934 nM"
molecule=COc1ccc(-c2ccc(NC(=O)c3cccc(C#N)c3)cc2)cc1CN1CCC(O)CC1 observed_result="821 nM"
molecule=CN1CCN(Cc2ccc(-c3cc4nccc(Nc5ccc(Oc6ccccc6)cc5)c4cc3Cl)o2)CC1 observed_result="979 nM"
molecule="Cc1cccc2nc(-c3cccc(-c4ccc(C(=O)N5CCCCC5C(C)O)cc4)c3)[nH]c12 (stereo not given)" observed_result="371 nM"

----------
Tested on: Plasmodium falciparum
Assay: GSK_TCMDC: Inhibition of Plasmodium falciparum 3D7 in whole erythrocytes, using parasite LDH activity as an index of growth.
Format: functional, organism-based
Conditions: Plasmodium falciparum, 3D7
metric-name: XC50 (nM)

compound="CCCCN(CCCC)CCC(O)C(=Cc1ccc(Cl)cc1Cl)c1ccc(C(F)(F)F)cc1N (stereo not given)" metric_name=XC50 unit_label=nM observed_result=193
compound=O=C(c1cccc(-c2noc(C(F)(F)F)n2)c1)N1CCN(c2nsc3ccccc23)CC1 metric_name=XC50 unit_label=nM observed_result=145
compound=CCOc1ccc(C(=O)Nc2nonc2-c2ccc(OC)c(OC)c2)cc1 metric_name=XC50 unit_label=nM observed_result=868
compound="CN(C)CCCN1C(=O)c2[nH]nc(-c3ccc(Cl)cc3O)c2C1c1ccc(Cl)cc1 (stereo not given)" metric_name=XC50 unit_label=nM observed_result=758
compound="Cc1c[nH]c2cc(/C=C/C(=O)NC3CCC(CCN4CCc5ccc(C#N)cc5CC4)CC3)ccc12 (stereo not given)" metric_name=XC50 unit_label=nM observed_result=801
compound=CCc1cccc(-n2c(=O)c3cccnc3n2CC(=O)NCc2ccccc2Cl)c1 metric_name=XC50 unit_label=nM observed_result=741
compound=O=C(Nc1cccc(C(F)(F)F)c1)Nc1ccc(Cl)c(C(F)(F)F)c1 metric_name=XC50 unit_label=nM observed_result=890
compound=COc1cc2nc(N3CCC(CNC(=O)c4cc5ccccc5s4)CC3)nc(N)c2cc1OC metric_name=XC50 unit_label=nM observed_result=293
compound=CN(C)C(=O)O[C@@H]1CN[C@H](C#Cc2cc3ncnc(Nc4ccc5c(cnn5Cc5cccc(F)c5)c4)c3s2)C1 metric_name=XC50 unit_label=nM observed_result=759
compound=CCCCc1cc(NCc2ccncc2)nc(Nc2cccc(OC)c2)n1 metric_name=XC50 unit_label=nM observed_result=742
compound=CCn1c(C=Cc2cc(Br)ccc2O)nc2ccccc2c1=O metric_name=XC50 unit_label=nM observed_result=654
compound=CCOc1cc(C(C)C)ccc1N1CCN(CCCCNC(=O)c2ccc(NC(=O)c3ccc(Cl)cc3)cc2)CC1 metric_name=XC50 unit_label=nM observed_result=416
compound=CC(C)CCN1CCC(Oc2ccc(NC(=O)c3ccco3)cc2Cl)CC1 metric_name=XC50 unit_label=nM observed_result=676
compound=FC(F)(F)c1cc(Nc2ccc(Oc3ccccc3)cc2)c2cc(-c3ccncc3)ccc2n1 metric_name=XC50 unit_label=nM observed_result=454
compound=Cc1ccc(O)cc1Nc1ccnc2cc(-c3csc(CN(C)CCN(C)C)n3)ccc12 metric_name=XC50 unit_label=nM observed_result=789
compound=COc1ccc2[nH]c(C)cc(=NN=Cc3cc(OC)c(OC)cc3OC)c2c1 metric_name=XC50 unit_label=nM observed_result=739
compound=COc1ccc2[nH]c(C)cc(=NN=Cc3cccc(Cl)c3)c2c1 metric_name=XC50 unit_label=nM observed_result=632
compound="Cc1ccccc1C1CCN(C2CCC(NC(=O)/C=C/c3c[nH]c4ccccc34)CC2)CC1 (stereo not given)" metric_name=XC50 unit_label=nM observed_result=810
compound=COc1ccc2nccc([C@@H](O)CN3CCC(NC(=O)C(=Cc4ccc(C#N)cc4)c4ccc(-c5ccccc5)cc4)CC3)c2c1 metric_name=XC50 unit_label=nM observed_result=739
compound=CN1CCN(c2ccnc3ccc(NC(=O)Nc4ccccc4Br)cc23)CC1 metric_name=XC50 unit_label=nM observed_result=372
